Measured self-cleavage, listed per entry.
B1: CPEB3 Ribozyme (parent)
chain: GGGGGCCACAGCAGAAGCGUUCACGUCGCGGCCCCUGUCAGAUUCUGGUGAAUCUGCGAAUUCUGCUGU

Variants of: B1
Assay: self-cleavage, relative activity (ratio to wild type); higher = more cleavage; co-transcriptional
parameter: self-cleavage

| variant-key | parameter | reported-result |
| --- | --- | --- |
| G1C C9U | self-cleavage | 0.246 |
| A52C G56C | self-cleavage | 0.536 |
| U44A U53C | self-cleavage | 0.684 |
| G3U G37C | self-cleavage | 0.035 |
| C12A A52G | self-cleavage | 0.788 |
| G1U C32A | self-cleavage | 0.201 |
| U21C G47U | self-cleavage | 0.978 |
| U55C U64G | self-cleavage | 0.531 |
| G5U A52U | self-cleavage | 0.232 |
| C6A G28U | self-cleavage | 0.163 |
| C45A U61A | self-cleavage | 0.86 |
| G37C C45U | self-cleavage | 0.203 |
| U20C U67A | self-cleavage | 0.233 |
| G2U G19A | self-cleavage | 0.0693 |
| A16U G56U | self-cleavage | 0.624 |
| G1C U67A | self-cleavage | 0.193 |
| A40C C63U | self-cleavage | 0.388 |
| G1A C32G | self-cleavage | 0.0331 |
| A23C U53C | self-cleavage | 0.915 |
| G4A G50U | self-cleavage | 0.849 |
| C22A C24U | self-cleavage | 0.128 |
| U20G U46A | self-cleavage | 0.164 |
